target.under.test: eOD-GT8 (engineered outer domain germline-targeting version 8), monomer (HIV-1 gp120 engineered outer domain, …)
assay.endpoint: binding result

binder	observed.result
G001_gp1_V10_VRC01c_2021-0131 (antibody, V domains shown) VH: QVQLVQSGAEVKKPGASVKVSCEASGYTFTDYYIHWVRQAPGQGLEWMGWINPSSGGTNYAQKFQGWVTMTRDTSISTAYMELSRLTSDDTAFYYCARGLGRQWEWGYWGQGTLVTVSS VL: DIQMTQSPPSLSASVGDRVTITCQASQDISKYLNWYQQKAGKAPKLLIYDVSNLETGVPSRFSGSGSGTDFTFTISSLQPEDIATYYCQQYEFFGQGTRLEIK	binds
G001_gp1_V10_VRC01c_2021-0092 (antibody, V domains shown) VH: QVQLVQSGAEVKKPGASVKVSCKASGYTFTGYYMHWVRQAPGHGLEWMGWINPNSGGSNYAQRFQGWVTMTRDTSISTAYMELTRLRSDDTAVYYCARELLAAAGTVFDYWGQGTLVTVSS VL: EIVLTQSPGTLSLSPGERATLSCRASQSVSSSYLAWYQQKPGQAPRLLIYGASSRATGIPDRFSGSGSGTDFTLTISRLEPEDFAVYYCQQYETFGQGTKVEIN	binds
G001_gp1_V10_VRC01c_170 (antibody, V domains shown) VH: QVQLVQSGAEVKKPGASVKVSCKASGYTFTDYYMHWVRQAPGQGLEWMGWINPNSGGTNYAQKFQDRVTMTRDTSISTGYMELRRLRSDDTAVYYCASHHLTSQGPWWFDPWGQGTLLTVSS VL: EIVLTQSPGTLSLSPGERATLSCRASQSVSSSYLVWYQQKPGQAPRLLIYGASSRATGIPDRFSGRGSGTDFTLTISRLESEDFAVYFCQQYETFGQGTKVEIK	binds
